Tested on: Danio rerio embryo (fli1:egfp)
Test Method Notes: body length at 72 hpf (µm); higher = longer body (less growth inhibition)
Measurement Conditions: 0.39 µM; exposure: 5-72 hpf
body length at 72 hpf overview

Request: Report body length at 72 hpf for C=CCOC(=O)C(C)(C)OC(=O)c1cc(-n2c(=O)cc(C(F)(F)F)n(C)c2=O)ccc1Cl [Butafenacil] please.
Result: 3000

Request: Entry to check: CC1(C)C(C(=O)OC(C#N)c2cccc(Oc3ccccc3)c2)C1(C)C (stereo not drawn) [Fenpropathrin]
Result: 2940

Request: Proceed to COC(=O)N(C(=O)N1CO[C@@]2(C(=O)OC)Cc3cc(Cl)ccc3C2=N1)c1ccc(OC(F)(F)F)cc1 [Indoxacarb]
Result: 2950

Request: What about this compound? CCOC(=O)COc1cc(-c2nn(C)c(OC(F)F)c2Cl)c(F)cc1Cl [Pyraflufen-ethyl]
Result: 3040

Request: CCc1nn(C)c(C(=O)NCc2ccc(C(C)(C)C)cc2)c1Cl [Tebufenpyrad] ?
Result: 2990

Request: // query: CO/N=C(/C1=NOCCO1)c1ccccc1Oc1ncnc(Oc2ccccc2Cl)c1F [Fluoxastrobin]
Result: 2970

Request: And for CCOc1cc(Oc2ccc(C(F)(F)F)cc2Cl)ccc1[N+](=O)[O-] [Oxyfluorfen] ?
Result: 2990

Request: Also C[C@@]1(c2ccc(Oc3ccccc3)cc2)OC(=O)N(Nc2ccccc2)C1=O (racemic) [Famoxadone] ?
Result: 2970

Request: CCCCCOC(=O)COc1cc(N2C(=O)C3=C(CCCC3)C2=O)c(F)cc1Cl [Flumiclorac-pentyl] , same question.
Result: 2950

Request: One more compound: CCOC(=O)C(Cl)Cc1cc(-n2nc(C)n(C(F)F)c2=O)c(F)cc1Cl (stereo not drawn) [Carfentrazone-ethyl]
Result: 2990

Request: Now the compound O=C(O)c1cc(Oc2ccc(C(F)(F)F)cc2Cl)ccc1[N+](=O)[O-] [Acifluorfen]
Result: 3000

Request: Entry to check: CO/N=C(/C(=O)OC)c1ccccc1CO/N=C(\C)c1cccc(C(F)(F)F)c1 [Trifloxystrobin]
Result: 2970

Request: Then CCCCSP(=O)(SCCCC)SCCCC [Tribufos] ?
Result: 2940

Request: Can you handle C#CCOC(=O)[C@@H](C)Oc1ccc(Oc2ncc(Cl)cc2F)cc1 [Clodinafop-propargyl] next?
Result: 3000

Request: Cool, now CCOC(=O)C(C)OC(=O)c1cc(Oc2ccc(C(F)(F)F)cc2Cl)ccc1[N+](=O)[O-] (stereo not drawn) [Lactofen]
Result: 2940

Request: Also, Cc1nn(-c2cc(NS(C)(=O)=O)c(Cl)cc2Cl)c(=O)n1C(F)F [Sulfentrazone] please.
Result: 2970

Request: Now the compound CC1(C)C(C=C(Cl)Cl)C1C(=O)OC(C#N)c1ccc(F)c(Oc2ccccc2)c1 (stereo not drawn) [Cyfluthrin]
Result: 3070

###

Tested on: Danio rerio embryo (fli1:egfp)
Test Method Notes: intersegmental vessel area normalized to body length at 72 hpf (ISV area / body length (normalized units)); higher = more vessel area
Measurement Conditions: 12.5 µM; exposure: 5-72 hpf
Value Kind: intersegmental vessel area normalized
# answer = number (no unit)

>>> print(df.to_string())
                                   compound  measured_number
0  C=CCOC(=O)C(C)(C)OC(=O)c1cc(-n2c(=O)cc(C(F)(F)F)n(C)c2=O)ccc1Cl             81.2
1  CC(C)Oc1cc(-n2nc(C(C)(C)C)oc2=O)c(Cl)cc1Cl             94.5
2  COC(=O)N(C(=O)N1CO[C@@]2(C(=O)OC)Cc3cc(Cl)ccc3C2=N1)c1ccc(OC(F)(F)F)cc1             70.6

Consider the record given below.
Request: Entry under review: CCOC(=O)C(C)OC(=O)c1cc(Oc2ccc(C(F)(F)F)cc2Cl)ccc1[N+](=O)[O-] (centres undefined) . Reported intersegmental vessel area normalized?
Result: 99.7

###

Tested on: Danio rerio embryo (fli1:egfp)
Test Method Notes: body length at 72 hpf (µm); higher = longer body (less growth inhibition)
Measurement Conditions: 0.05 µM; exposure: 5-72 hpf
Value Kind: body length at 72 hpf
Form rule: numeric answer, no unit written next to it.

>>> df
                                   compound             value_kind  measured_number
0  CCOC(=O)COc1cc(-c2nn(C)c(OC(F)F)c2Cl)c(F)cc1Cl  body length at 72 hpf             3030
1  O=C(O)c1cc(Oc2ccc(C(F)(F)F)cc2Cl)ccc1[N+](=O)[O-]  body length at 72 hpf             2970
2  CCOC(=O)C(C)OC(=O)c1cc(Oc2ccc(C(F)(F)F)cc2Cl)ccc1[N+](=O)[O-] (stereo not drawn)  body length at 72 hpf             3000
3  CCOC(=O)C(Cl)Cc1cc(-n2nc(C)n(C(F)F)c2=O)c(F)cc1Cl (stereo not drawn)  body length at 72 hpf             2950
4  CCCCCOC(=O)COc1cc(N2C(=O)C3=C(CCCC3)C2=O)c(F)cc1Cl  body length at 72 hpf             3040
5  Cc1nn(-c2cc(NS(C)(=O)=O)c(Cl)cc2Cl)c(=O)n1C(F)F  body length at 72 hpf             3000
6  CO/N=C(/C(=O)OC)c1ccccc1CO/N=C(\C)c1cccc(C(F)(F)F)c1  body length at 72 hpf             2950

Switching to the query record.
Request: Can you share its body length at 72 hpf? I mean this compound: COC(=O)N(C(=O)N1CO[C@@]2(C(=O)OC)Cc3cc(Cl)ccc3C2=N1)c1ccc(OC(F)(F)F)cc1
Result: 2980

###

Tested on: Danio rerio embryo (fli1:egfp)
Test Method Notes: body length at 72 hpf (µm); higher = longer body (less growth inhibition)
Measurement Conditions: 0.05 µM; exposure: 5-72 hpf
Each entry below carries its recorded body length at 72 hpf.
Just the number, please.

Example compounds with recorded body length at 72 hpf:
>>> print(df.to_string())
                                   compound             value_kind  measured_number
0  CC1(C)C(C=C(Cl)Cl)C1C(=O)OC(C#N)c1ccc(F)c(Oc2ccccc2)c1 (centres undefined) [Cyfluthrin]  body length at 72 hpf             3010
1  C=CCOC(=O)C(C)(C)OC(=O)c1cc(-n2c(=O)cc(C(F)(F)F)n(C)c2=O)ccc1Cl [Butafenacil]  body length at 72 hpf             2960

Request: body length at 72 hpf for CCc1nn(C)c(C(=O)NCc2ccc(C(C)(C)C)cc2)c1Cl [Tebufenpyrad] ?
Result: 2980

Request: Repeat with CO/N=C(/C1=NOCCO1)c1ccccc1Oc1ncnc(Oc2ccccc2Cl)c1F [Fluoxastrobin]
Result: 2970

###

Test system: Danio rerio embryo (fli1:egfp)
Test Method Notes: pericardial area at 72 hpf (image area units (not stated)); higher = larger pericardial area (edema)
Measurement Conditions: 0.098 µM; exposure: 5-72 hpf
Value Kind: pericardial area at 72 hpf
Write the value as a bare number.

Consider the reported pericardial area at 72 hpf for these compounds:
>>> print(df.to_string())
                                   compound  measured_number
0  C#CCOC(=O)[C@@H](C)Oc1ccc(Oc2ncc(Cl)cc2F)cc1            12900
1  CC1(C)C(C(=O)OC(C#N)c2cccc(Oc3ccccc3)c2)C1(C)C (centres undefined)            13400
2  CCOC(=O)C(C)OC(=O)c1cc(Oc2ccc(C(F)(F)F)cc2Cl)ccc1[N+](=O)[O-] (centres undefined)            17300

Now, please, on to the next compound.
Request: API: value(readout= pericardial area at 72 hpf, system= Danio rerio embryo (fli1:egfp), query= CCOc1cc(Oc2ccc(C(F)(F)F)cc2Cl)ccc1[N+](=O)[O-] )
Result: 14900

###

Form field: body length at 72 hpf (one value per entry).
Test system: Danio rerio embryo (fli1:egfp)
Test Method Notes: body length at 72 hpf (µm); higher = longer body (less growth inhibition)
Measurement Conditions: 0.05 µM; exposure: 5-72 hpf
# output: bare number, no unit

Below, each entry is followed by its recorded body length at 72 hpf result.
                                   compound             value_kind  measured_number
0            N#Cc1c(Cl)c(Cl)c(Cl)c(C#N)c1Cl  body length at 72 hpf             2960
1  CC(C)Oc1cc(-n2nc(C(C)(C)C)oc2=O)c(Cl)cc1Cl  body length at 72 hpf             3090

Request: Which body length at 72 hpf reading was recorded for the compound CCOC(=O)COc1cc(-n2ncc(C(F)(F)F)c(C)c2=O)c(F)cc1Cl ?
Result: 2990

Request: And then C#CCN1C(=O)COc2cc(F)c(N3C(=O)C4=C(CCCC4)C3=O)cc21 , what is it?
Result: 3020

Request: Try C[C@@]1(c2ccc(Oc3ccccc3)cc2)OC(=O)N(Nc2ccccc2)C1=O (racemic) next.
Result: 2980
